Target: GDP-bound KRAS protein (aa 1-169), containing both G12C and C118A amino acid substitutions (Homo sapiens, UniProt P01116, C118A/G12C)
Sequence (P01116 1-169 isoform P01116-2 G12C/C118A): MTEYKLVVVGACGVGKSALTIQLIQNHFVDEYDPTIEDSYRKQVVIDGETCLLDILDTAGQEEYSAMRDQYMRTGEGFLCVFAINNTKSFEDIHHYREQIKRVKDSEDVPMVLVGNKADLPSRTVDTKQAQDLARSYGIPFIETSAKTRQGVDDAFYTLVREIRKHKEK
Test: Coupled Nucleotide Exchange Assay (Table 15 conditions: 2 hours pre-incubation)
Format: biochemical
Settings: 2 hours compound pre-incubation (Table 15 conditions)
Just so you know, the groups by Coupled exchange IC50 go like this: bucket 1 (below 300 nM), bucket 2 (300 nM to below 800 nM), bucket 3 (800 nM or more)

Examples with answers:
compound	assigned_class
C=C(CBr)C(=O)N1CCN(c2snc3c(F)c(-c4cc(O)cc5ccccc45)c(Cl)cc23)CC1 (single isomer, unassigned)	bucket 2
C=CC(=O)N1CCN(c2nc(=O)n(-c3ccccc3C(C)C)c3cc(-c4c(O)cccc4F)c(Cl)cc23)[C@@H](C)C1 (single isomer, unassigned) [Example 8-3-2]	bucket 2
C=CC(=O)N1CCN(c2snc3c(F)c(-c4cc(O)cc5ccccc45)c(Cl)cc23)C(CF)C1 (racemic)	bucket 1
C=CC(=O)N1CCN(c2nc(=O)n(-c3ccccc3C(C)C)c3cc(-c4c(O)cccc4F)c(Cl)cc23)[C@@H](C)C1 [Example 8-3]	bucket 1
C=CC(=O)N1CCN(c2nc(=O)n(-c3ccccc3C(C)C)c3cc(-c4c(O)cccc4F)c(Cl)cc23)[C@@H](C)C1 [Example 8-3-1]	bucket 1
C=CC(=O)N1CCN(c2snc3c(F)c(-c4c(C)ccc5[nH]ncc45)c(Cl)cc23)C(C(F)F)C1 (racemic)	bucket 2
C=CC(=O)N1CCN(c2snc3nc(-c4cc(OC)cc5ccccc45)c(Cl)cc23)C(C)C1 (racemic)	bucket 3
C=CC(=O)N1CCN(c2snc3c(F)c(-c4cc(O)cc5ccccc45)c(Cl)cc23)C(C(C)C)C1 (racemic)	bucket 3

GET /class?item= `C=CC(=O)N1CCN(c2nnc(-c3ccccc3C(C)C)c3cc(-c4c(O)cccc4F)c(C)nc23)CC1` bucket 3

GET /class?item= C=CC(=O)N1CCN(c2snc3c(F)c(-c4cc(O)cc5ccccc45)c(Cl)cc23)CC1CO (racemic) bucket 2

GET /class?item= C=C(CO)C(=O)N1CCN(c2snc3c(F)c(-c4cc(O)cc5ccccc45)c(Cl)cc23)CC1 (single isomer, unassigned) bucket 3

GET /class?item= `C=CC(=O)N1CCN(c2snc3c(F)c(-c4cc(O)cc5ccccc45)c(Cl)cc23)[C@@H](C)C1` bucket 1

FYI, the data here is from patent US11905281B2.
